Attribute: GI50
Tested on: Malme-3M
Assay: NCI tumour cell line growth inhibition, 48 h
Activity calls are given as the source filed them. No stated cut-off is given here; in the data, active = GI50 up to about 1.1 µM and inactive = higher.

Example entries begin here.
COc1ccc(/C=C/C(=O)c2c(-c3ccccc3)nn(C)c(=O)c2N2CC2C)cc1 (centres undefined) | 35.7 µM (inactive)
CC1CC[C@@H](C(C)C)[C@H](Oc2nnc(C3OC(CO)C(O)C3O)o2)C1 (some centres undefined) | > 100 µM (inactive)
O=C1Oc2cc3c(c4cccc1c24)O[C@H](c1ccccc1)[C@@H](c1ccccc1)[C@@H]3c1ccc(Cl)cc1 | 37.3 µM (inactive)
COc1cc(Cc2cc3c(c(C(=O)O)c2Br)OCO3)cc(OC)c1OC | 57.8 µM (inactive)
Cc1ccc(S(=O)(=O)N/N=C(\c2nc3ccc([N+](=O)[O-])cc3[nH]c2=O)C(O)c2ccc([N+](=O)[O-])cc2)cc1 (centres undefined) | > 100 µM (inactive)

Prompt: Find the recorded GI50 belonging to Cc1nc(SCC(N)=O)c2sc(=S)n(-c3ccccc3)c2n1 and report it.
Response: > 10 µM (inactive)

Prompt: Find the recorded GI50 belonging to O=C1C=CC=C/C1=C1/SC(c2ccccc2)=C(O)N1c1ccccc1 and report it.
Response: > 100 µM (inactive)

Prompt: Find the recorded GI50 belonging to O=C1CC(=O)NC(NN2C(=O)CSC2C(=O)c2ccco2)=N1 (centres undefined) and report it.
Response: > 100 µM (inactive)

Prompt: Find the recorded GI50 belonging to C=C(C)[C@@]1(O)CCCC[C@@H]1CC(Sc1ccccc1)Sc1ccccc1 and report it.
Response: 12.6 µM (inactive)
